Cited source: PubChem BioAssay

test-target: Voltage-gated potassium channel subunit beta-2 (Rattus norvegicus)
test-protocol: enhancers of rat Kvbeta2 NADPH turnover – biochemical, NADPH fluorescence, primary screen (AID 623);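 also: fluorescence intensity change per second fitted from 20 to 320 s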
condition-notes: Recombinant KvBeta, NADPH fluorescence decrease slope, 10 min; at 10 µM; hits give low values
// values below are reported NADPH fluorescence slope
test-readout: NADPH fluorescence slope

O=C1CC(c2ccccc2)CC(O)=C1C=NCCCN1CCOCC1 (configuration not stated)    -4e-06
O=C(Nc1ccc(O)cc1)C1CCCN1S(=O)(=O)c1ccc(F)cc1 (configuration not stated)    -2.5e-05
CC(=O)N1CCc2cc(S(=O)(=O)NCCC3=CCCCC3)ccc21    3.5e-05
Cc1ccc2occ(CN3CCN(c4ccccc4)CC3)c(=O)c2c1    -1.6e-05
Cc1ccc2[nH]c3c(=O)n(CCCN4CCN(C)CC4)cnc3c2c1    -2.9e-05
Cn1cccc1Cc1nnc(SCC(=O)Nc2ccccc2F)n1CCc1ccccc1    1.5e-05
Cc1nc(SCC(=O)NCc2ccco2)c2c(C)c(C)sc2n1    -3.9e-05
Cc1ccc(CN2C(=O)CCC2C(=O)NCC2CCCO2)cc1 (configuration not stated)    -2.2e-05
O=C(CSc1nc2ccccc2c(=O)n1Cc1ccco1)NCc1ccccc1    -4.9e-05
Cc1cccc(NC(=O)CCCCCN2C(=O)c3ccccc3C2=O)n1    -6.5e-05
CCCN1Cc2cccc(C(=O)NC3CCCC3)c2C1=O    -6.1e-05
C#CCSc1nc(-c2cccs2)ccc1C#N    5.7e-06
O=C(CSc1nnc(Cc2ccccc2)n1-c1cccc(Cl)c1)N1CCOCC1    -4.5e-05
O=C(Cn1cccc1C(=O)c1ccccc1)NCCN1CCOCC1    -1.2e-05
CC(=O)Nc1ccc(NC(=O)c2cc(C)nn2-c2ccccc2)cc1    -1.7e-06
COc1cccc(-n2c(CNc3ccc(F)cc3)nnc2SCC(N)=O)c1    -1.9e-05
CCCn1c(SCC(=O)NC(=O)NCc2ccco2)n[nH]c1=O    -3.4e-05
CCOC(=O)c1ccccc1NC(=O)Cn1cnc2c(cnn2-c2ccc(OC)cc2)c1=O    -4.6e-06
COc1ccccc1N(CC(=O)NC1CCCC1)C(=O)c1csnn1    -2.7e-05
Cc1cccn2c(=O)c3cc(C(=O)N4CCCc5ccccc54)n(C)c3nc12    -3.1e-05
CCc1cc2ccc(C)cc2nc1SCC(=O)N1CCN(C(=O)c2ccco2)CC1    -0.000145
C#CC(CO)N(CCN(Cc1ccccc1)C(C#C)CO)Cc1ccccc1 (configuration not stated)    -5.4e-05
CC1(C)CC(=O)CC(C)(C)N1OC(=O)c1ccccn1    2e-05
CCCCCOC(=O)CSc1nnc(-c2cc(OC)c(OC)c(OC)c2)o1    -3.4e-05
CC(C)(C)c1nc(CN2CCOCC2)ccc1O    -4.4e-05
COc1cccc(NC(=O)N(CCCN2CCOCC2)C(C)c2cc3cccc(OC)c3o2)c1 (configuration not stated)    -6.3e-05
Cc1ccc2c(c1)C(N1CCCC1=O)CC(c1ccco1)N2 (configuration not stated)    3.1e-05
CCC(=O)Nc1ccc(NC(=O)c2ccccn2)cn1    -5.9e-05
CCN(Cc1nc2cc(OC)c(OC)cc2c(=O)[nH]1)C(=O)c1ccc(S(=O)(=O)N(C)C)cc1    -0.000108
O=C1C2C3C=CC(C3)C2C(=O)N1Cc1ccccc1 (configuration not stated)    -6.1e-05
CC(C)C(c1nnnn1C1CCCC1)N1CCN(C(=O)c2ccco2)CC1 (configuration not stated)    -1.1e-05
Clc1cccc(Cl)c1COc1ccncc1    7.2e-05
CC1(C)NC(=O)N(CCCOc2ccc(Br)cc2Cl)C1=O    -2.9e-06
COc1cccc(NC(=O)CSc2nnnn2C(C)C)c1    -9e-05
CC(N)C12CC3CC(C1)CC(C(C)N)(C3)C2 (configuration not stated)    -6.5e-05
C1CCN=C(Nc2nc3c(s2)CCCC3)CC1    -3.8e-05
O=C1c2ccccc2C(O)(Cc2ccccc2)N1Cc1ccco1 (configuration not stated)    -1.5e-05
CCOC(=O)N1CCC(N2C(=O)c3ccccc3C2Nc2ccccc2C)CC1 (configuration not stated)    -3.2e-05
CN1CCN(c2ccc(Cl)cc2NC(=O)c2cccc(S(=O)(=O)N(C)C)c2)CC1    -2e-05
Cc1noc(C)c1C(=O)N1CCN(C(=O)c2sc3cc(Cl)ccc3c2Cl)CC1    -6.4e-05
COc1cccc(N(C(=O)c2ccco2)C(C(=O)NC2CCCC2)c2ccc(N(C)C)cc2)c1 (configuration not stated)    -0.000142
CCOC(=O)c1cc2ccc(OC)c(OC)c2c(=O)s1    -2.4e-05
COC(=O)c1ccccc1NC(=O)c1cnc2sccn2c1=O    -5.8e-05
CCn1c(SCC(=O)NCc2ccco2)nc2c(c1=O)SC(C)C2 (configuration not stated)    -0.000131
COc1cccc(OCCn2ccnc2)c1    2e-05
CCOC(=O)CNc1ccc2c(c1)OCO2    -0.000182
COc1ccccc1C1N(c2ccc(F)cc2)C(=O)C2CCCN21 (configuration not stated)    -7.5e-05
